- assay target: Mer (Homo sapiens (Human), UniProt Q12866)
- Sequence (Q12866 21-999): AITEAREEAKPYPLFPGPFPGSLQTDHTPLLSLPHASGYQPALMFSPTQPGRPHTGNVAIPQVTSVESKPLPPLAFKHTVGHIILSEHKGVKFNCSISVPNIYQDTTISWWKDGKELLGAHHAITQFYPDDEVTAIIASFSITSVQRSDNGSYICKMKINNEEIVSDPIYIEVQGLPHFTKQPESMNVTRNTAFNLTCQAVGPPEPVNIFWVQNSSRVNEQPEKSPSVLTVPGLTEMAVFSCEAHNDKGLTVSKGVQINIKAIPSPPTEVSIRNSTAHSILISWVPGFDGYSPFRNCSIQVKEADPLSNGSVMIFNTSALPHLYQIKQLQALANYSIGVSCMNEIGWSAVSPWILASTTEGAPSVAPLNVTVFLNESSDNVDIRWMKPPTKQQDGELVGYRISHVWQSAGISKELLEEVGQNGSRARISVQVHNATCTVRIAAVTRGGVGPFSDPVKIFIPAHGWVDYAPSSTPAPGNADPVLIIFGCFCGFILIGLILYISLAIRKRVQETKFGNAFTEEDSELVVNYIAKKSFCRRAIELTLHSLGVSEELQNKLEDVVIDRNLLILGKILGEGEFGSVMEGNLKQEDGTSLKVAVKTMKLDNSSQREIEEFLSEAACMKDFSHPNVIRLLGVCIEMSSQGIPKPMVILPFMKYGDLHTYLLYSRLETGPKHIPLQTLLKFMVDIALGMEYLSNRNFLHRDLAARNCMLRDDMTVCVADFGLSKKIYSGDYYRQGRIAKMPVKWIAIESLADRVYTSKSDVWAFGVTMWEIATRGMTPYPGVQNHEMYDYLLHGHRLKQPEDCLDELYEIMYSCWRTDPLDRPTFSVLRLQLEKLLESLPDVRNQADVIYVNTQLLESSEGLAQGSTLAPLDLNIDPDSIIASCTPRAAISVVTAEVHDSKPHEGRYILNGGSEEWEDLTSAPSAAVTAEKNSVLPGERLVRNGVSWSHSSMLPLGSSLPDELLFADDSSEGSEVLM
- protocol summary: Mer autophosphorylation ELISA in transient transfected 293A cells
- Type: cell-based
- condition description: cellular, MERTK-transfected 293A cells, phospho-Mer ELISA
Overview of reported IC50 across a group of molecules:

Illustrative cases are given below, each with its answer.
query smiles | assay target | measured result
COc1nc2c(Oc3c(F)cc(NC(=O)C4(C(=O)Nc5ccc(F)cc5)CC4)cc3F)ncnc2cc1OCCCN1CCOCC1 | Mer (Homo sapiens (Human), UniProt Q12866) | ≤ 10 nM
COCCOc1cc2nccc(Oc3ccc(NC(=O)C4(C(=O)Nc5ccc(F)cc5)CC4)cc3)c2nc1OC | Mer (Homo sapiens (Human), UniProt Q12866) | ≤ 10 nM
COc1nc2c(Oc3cc(F)c(NC(=O)C4(C(=O)Nc5ccc(F)cc5)CC4)cc3F)ncnc2cc1OCCCN1CCOCC1 | Mer (Homo sapiens (Human), UniProt Q12866) | 10 to 100 nM
COc1nc2c(Oc3ccc(NC(=O)C4(C(=O)Nc5ccc(F)cc5)CC4)c(F)c3)ncnc2cc1OCCCN1CCOCC1 | Mer (Homo sapiens (Human), UniProt Q12866) | ≤ 10 nM
COc1cc2ncnc(Oc3ccc(NC(=O)C4(C(=O)Nc5ccc(F)cc5)CC4)cc3)c2cc1C(=O)NCCN1CCCC1 | Mer (Homo sapiens (Human), UniProt Q12866) | 10 to 100 nM
COc1nc2c(Oc3ccc(NC(=O)C4(C(=O)Nc5ccc(F)cc5)CC4)c(Cl)c3)ncnc2cc1OCCCN1CCOCC1 | Mer (Homo sapiens (Human), UniProt Q12866) | 10 to 100 nM

Turning now to a further record.
Give the measured IC50 of `COCCOc1cc2nccc(Oc3ccc(NC(=O)C4(C(=O)Nc5ccc(F)cc5)CC4)cc3F)c2nc1OC` .
≤ 10 nM

----------
- assay target: KDR (Homo sapiens (Human), UniProt P35968)
- Sequence (P35968 20-1356): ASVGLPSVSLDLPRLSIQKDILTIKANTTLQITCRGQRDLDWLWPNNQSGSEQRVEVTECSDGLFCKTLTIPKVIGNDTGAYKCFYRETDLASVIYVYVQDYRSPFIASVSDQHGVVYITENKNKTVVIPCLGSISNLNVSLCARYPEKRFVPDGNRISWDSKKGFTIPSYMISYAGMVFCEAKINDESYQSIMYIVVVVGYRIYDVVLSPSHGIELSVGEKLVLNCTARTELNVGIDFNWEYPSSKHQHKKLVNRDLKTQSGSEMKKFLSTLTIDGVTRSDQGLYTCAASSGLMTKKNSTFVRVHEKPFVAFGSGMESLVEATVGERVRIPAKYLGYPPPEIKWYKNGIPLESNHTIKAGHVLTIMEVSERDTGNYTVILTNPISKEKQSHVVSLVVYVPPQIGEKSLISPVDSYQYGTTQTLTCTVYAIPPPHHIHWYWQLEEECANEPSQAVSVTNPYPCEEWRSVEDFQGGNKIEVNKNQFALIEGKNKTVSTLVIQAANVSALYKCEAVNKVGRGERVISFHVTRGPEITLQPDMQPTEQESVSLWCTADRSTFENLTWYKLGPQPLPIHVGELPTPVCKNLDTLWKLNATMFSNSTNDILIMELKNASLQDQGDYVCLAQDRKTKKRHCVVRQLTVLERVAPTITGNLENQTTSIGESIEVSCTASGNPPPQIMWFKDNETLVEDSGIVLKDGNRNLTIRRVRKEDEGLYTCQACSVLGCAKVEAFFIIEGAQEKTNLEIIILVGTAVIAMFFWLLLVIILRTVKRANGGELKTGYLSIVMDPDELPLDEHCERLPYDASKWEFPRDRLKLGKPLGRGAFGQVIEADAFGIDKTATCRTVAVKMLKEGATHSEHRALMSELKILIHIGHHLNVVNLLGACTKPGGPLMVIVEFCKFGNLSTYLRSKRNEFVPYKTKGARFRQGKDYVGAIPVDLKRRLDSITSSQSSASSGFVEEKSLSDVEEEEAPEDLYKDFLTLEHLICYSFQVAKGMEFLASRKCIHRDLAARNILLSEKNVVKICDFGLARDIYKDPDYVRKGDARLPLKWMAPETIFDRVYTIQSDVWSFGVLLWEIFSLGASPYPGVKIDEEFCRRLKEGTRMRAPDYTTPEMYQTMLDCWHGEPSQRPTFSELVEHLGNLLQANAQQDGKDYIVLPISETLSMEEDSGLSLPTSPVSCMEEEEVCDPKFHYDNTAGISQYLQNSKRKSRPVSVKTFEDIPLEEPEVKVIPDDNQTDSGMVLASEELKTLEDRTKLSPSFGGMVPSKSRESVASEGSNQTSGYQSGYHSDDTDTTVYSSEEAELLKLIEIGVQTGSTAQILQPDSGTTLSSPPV
- protocol summary: KDR autophosphorylation ELISA in HUVEC cells
- Assay type: cell-based
- condition description: cellular, VEGF165-stimulated, phospho-KDR ELISA
- Protocol: Human umbilical vein endothelial cells or HUVEC (Lonza #C2519A) were seeded at 2×10^4 cells/well onto 96-well plates (Corning #3904), in EGM-2 growth medium (Lonza #CC-3162) containing 1% Penicillin Streptomycin (Thermo Fisher #15140-122). […] IC50 values were calculated by nonlinear regression analysis using a 4-parameter logistic curve fit in ActivityBase XE (IDBS).
Overview of reported IC50 across a group of molecules:

Illustrative cases are given below, each with its answer.
molecule | test readout | measured result
COc1nc2c(Oc3cc(F)c(NC(=O)C4(C(=O)Nc5ccc(F)cc5)CC4)cc3F)ccnc2cc1OCCN1CCOCC1 [Compound 153] | IC50 | ≤ 10 nM
COc1nc2c(Oc3ccc(NC(=O)C4(C(=O)Nc5ccc(F)cc5)CC4)c(F)c3)ncnc2cc1OCCCN1CCOCC1 [Compound 69] | IC50 | 10 to 100 nM
COCCOc1cc2nccc(Oc3ccc(NC(=O)C4(C(=O)Nc5ccc(F)cc5)CC4)cc3)c2nc1OC [Compound 149] | IC50 | ≤ 10 nM
COc1nc2c(Oc3ccc(NC(=O)C4(C(=O)Nc5ccc(F)cc5)CC4)c(C)c3)ncnc2cc1OCCCN1CCOCC1 [Compound 71] | IC50 | 10 to 100 nM
COc1nc2c(Oc3ccc(NC(=O)C4(C(=O)Nc5ccc(F)cc5)CC4)cc3C)ncnc2cc1OCCCN1CCOCC1 [Compound 68] | IC50 | 10 to 100 nM

Give the measured IC50 of COc1cc2nccc(Oc3ccc(NC(=O)C4(C(=O)Nc5ccc(F)cc5)CC4)cc3)c2nc1OC [Compound 139] .
≤ 10 nM

And then COc1cc2ncnc(Oc3ccc(NC(=O)C4(C(=O)Nc5ccc(F)cc5)CC4)c(Cl)c3)c2nc1OC [Compound 32] , what is it?
100 to 300 nM

And then COc1cc2nccc(Oc3ccc(NC(=O)C4(C(=O)Nc5ccc(F)cc5)CC4)cc3F)c2nc1C(N)=O [Compound 168] , what is it?
> 300 nM

And then COc1cc(NC(=O)C2(C(=O)Nc3ccc(F)cc3)CC2)ccc1Oc1ncnc2cc(OCCCN3CCOCC3)c(OC)nc12 [Compound 74] , what is it?
10 to 100 nM

And then COc1nc2c(Oc3cc(F)c(NC(=O)C4(C(=O)Nc5ccc(F)cc5)CC4)cc3F)ncnc2cc1OCCCN1CCOCC1 [Compound 72] , what is it?
10 to 100 nM

And then COc1nc2c(Oc3ccc(NC(=O)C4(C(=O)Nc5ccc(F)cc5)CC4)cc3F)ncnc2cc1OCCCN1CCOCC1 [Compound 67] , what is it?
≤ 10 nM

And then COc1cc2nccc(Oc3ccc(NC(=O)C4(C(=O)Nc5ccc(F)cc5)CC4)cc3)c2nc1-c1ccnn1C [Compound 184] , what is it?
> 300 nM

And then COc1cc2ncnc(Oc3ccc(NC(=O)C4(C(=O)Nc5ccc(F)cc5)CC4)cc3)c2cc1C(=O)NC[C@H]1CCCN1 [Compound 121] , what is it?
100 to 300 nM

And then COc1cc2nccc(Oc3ccc(NC(=O)C4(C(=O)Nc5ccc(F)cc5)CC4)cc3)c2nc1C#N [Compound 164] , what is it?
100 to 300 nM

----------
Overview of reported IC50 across a group of molecules:
- assay target: KDR (Homo sapiens (Human))
- protocol summary: KDR autophosphorylation ELISA in HUVEC cells
- condition description: cellular, VEGF165-stimulated, phospho-KDR ELISA

Illustrative cases are given below, each with its answer.
query smiles | IC50
COc1nc2c(Oc3ccc(NC(=O)C4(C(=O)Nc5ccc(F)cc5)CC4)cc3)ncnc2cc1OCCCN1CCOCC1 | ≤ 10 nM
O=C(Nc1ccc(F)cc1)C1(C(=O)Nc2ccc(Oc3ccnc4cc5c(nc34)OCCO5)c(F)c2)CC1 | > 300 nM
COc1cc2nccc(Oc3ccc(NC(=O)C4(C(=O)Nc5ccc(F)cc5)CC4)cc3)c2nc1C(N)=O | > 300 nM

Give the measured IC50 of `COc1cnc2c(Oc3cc(F)c(NC(=O)C4(C(=O)Nc5ccc(F)cc5)CC4)cc3F)ccnc2c1` .
100 to 300 nM

----------
- assay target: Met (Homo sapiens (Human))
- protocol summary: Human Met kinase assay (33P radiometric, KinaseProfiler)
- Assay type: biochemical
- condition description: 10 μM ATP, read-out: c-Met IC50
test readout: IC50

Illustrative cases are given below, each with its answer.
compound | IC50
O=C(Nc1ccc(F)cc1)C1(C(=O)Nc2ccc(Oc3ncnc4cccnc34)cc2)CC1 [Compound 7] | 100 to 1000 nM
O=C(Nc1ccc(F)cc1)C1(C(=O)Nc2ccc(Oc3ncnc4cnc(Cl)cc34)cc2)CC1 [Compound 88] | > 1000 nM
COc1cc2ncnc(Oc3ccc(NC(=O)C4(C(=O)Nc5ccc(F)cc5)CC4)cc3Cl)c2nc1OC [Compound 29] | ≤ 10 nM
O=C(Nc1ccc(F)cc1)C1(C(=O)Nc2ccc(Oc3ncnc4cnccc34)cc2)CC1 [Compound 85] | 100 to 1000 nM

Turning now to a further record.
I'm curious: which IC50 was measured for COc1cc2ncnc(Oc3ccc(NC(=O)C4(C(=O)Nc5ccc(F)cc5)CC4)cc3)c2nc1C#N [Compound 57] tested on Met (Homo sapiens (Human))?
100 to 1000 nM

----------
Overview of reported pIC50 across a group of compounds:
- assay target: Met (Homo sapiens (Human))
- protocol summary: Human Met kinase assay (33P radiometric, KinaseProfiler)
- Format: biochemical
- condition description: 10 μM ATP, read-out: c-Met IC50
pIC50: −log10 of the molar value.

Illustrative cases are given below, each with its answer.
compound | assay target | test readout | measured result
COc1cc2ncnc(Oc3ccc(NC(=O)C4(C(=O)Nc5ccc(F)cc5)CC4)cc3)c2cc1C(=O)NC[C@@H]1CCCN1C(=O)OC(C)(C)C [Compound 120] | Met (Homo sapiens (Human)) | pIC50 | 6.00 to 7.00
COc1cc2nccc(Oc3ccc(NC(=O)C4(C(=O)Nc5ccc(F)cc5)CC4)cc3)c2nc1OC [Compound 139] | Met (Homo sapiens (Human)) | pIC50 | ≥ 8.00
COc1nc2c(Oc3ccc(NC(=O)C4(C(=O)Nc5ccc(F)cc5)CC4)cc3F)ncnc2cc1OCCCN1CCOCC1 [Compound 67] | Met (Homo sapiens (Human)) | pIC50 | ≥ 8.00

Turning now to a further record.
Give the measured pIC50 of O=C(Nc1ccc(F)cc1)C1(C(=O)Nc2ccc(Oc3ncnc4cc5c(nc34)CCCC5)cc2)CC1 [Compound 52] .
6.00 to 7.00

----------
Overview of reported pIC50 across a group of molecules:
- assay target: Met (Homo sapiens (Human), UniProt P08581)
- protocol summary: Human Met kinase assay (33P radiometric, KinaseProfiler)
- Format: biochemical
- condition description: 10 μM ATP, read-out: c-Met IC50
pIC50: −log10 of the molar value.

Illustrative cases are given below, each with its answer.
query smiles | assay target | pIC50
COc1cc2nccc(Oc3ccc(NC(=O)C4(C(=O)Nc5ccc(F)cc5)CC4)cc3F)c2nc1OC | Met (Homo sapiens (Human), UniProt P08581) | ≥ 8.00
COc1cc2ncnc(Oc3ccc(NC(=O)C4(C(=O)Nc5ccc(F)cc5)CC4)cc3)c2cn1 | Met (Homo sapiens (Human), UniProt P08581) | 7.00 to 8.00
O=C(Nc1ccc(F)cc1)C1(C(=O)Nc2ccc(Oc3ncnc4cc(Cl)ncc34)cc2)CC1 | Met (Homo sapiens (Human), UniProt P08581) | 6.00 to 7.00
COc1cc2ncnc(Oc3ccc(NC(=O)C4(C(=O)Nc5ccc(F)cc5)CC4)cc3)c2cc1C(=O)NC[C@H]1CCCN1 | Met (Homo sapiens (Human), UniProt P08581) | ≥ 8.00
COc1nc2c(Oc3ccc(NC(=O)C4(C(=O)Nc5ccc(F)cc5)CC4)cc3)ncnc2cc1OCCCN1CCOCC1 | Met (Homo sapiens (Human), UniProt P08581) | 7.00 to 8.00

Give the measured pIC50 of `COc1cc2ncnc(Oc3ccc(NC(=O)C4(C(=O)Nc5ccc(F)cc5)CC4)cc3)c2cc1C(=O)NC[C@H]1CCCN1C(=O)OC(C)(C)C` .
6.00 to 7.00

And then `COc1cc2c(Oc3ccc(NC(=O)C4(C(=O)Nc5ccc(F)cc5)CC4)cc3)ncnc2cn1` , what is it?
6.00 to 7.00
